Target: Cannabinoid receptor 2 (Homo sapiens, UniProt P34972)
Sequence (P34972 whole entry): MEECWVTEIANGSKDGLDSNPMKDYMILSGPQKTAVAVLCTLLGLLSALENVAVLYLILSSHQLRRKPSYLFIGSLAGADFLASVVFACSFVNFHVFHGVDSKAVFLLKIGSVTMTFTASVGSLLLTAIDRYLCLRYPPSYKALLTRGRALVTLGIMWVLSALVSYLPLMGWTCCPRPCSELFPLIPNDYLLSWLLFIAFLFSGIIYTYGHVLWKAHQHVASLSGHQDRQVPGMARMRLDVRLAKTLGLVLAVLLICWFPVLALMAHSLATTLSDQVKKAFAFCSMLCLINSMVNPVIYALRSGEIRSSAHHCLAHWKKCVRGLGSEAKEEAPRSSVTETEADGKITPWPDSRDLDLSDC
Assay: Displacement of [3H]CP-55,940 from human CB2 receptor expressed in HEK293 cell membranes
Conditions: read-out: Ki(app)
attributeMeasured: pKi
For clarity, pKi is expressed as the negative log10 of concentration in mol/L.

What the record says about `CC1(C)Oc2cc([C@]34CC5CC(C[C@@](CN=C=S)(C5)C3)C4)cc(O)c2[C@@H]2C[C@H](O)CC[C@H]21` : pKi is 7.99

Per the record, `CC1(C)Oc2cc([C@]34CC5CC(C[C@@](N=C=S)(C5)C3)C4)cc(O)c2[C@@H]2C[C@H](O)CC[C@H]21` has pKi of 7.88
